Taken from paper PMC6278315.

Attribute: melting point

[
  {
    "molecule": "CCC1(c2cn(S(=O)(=O)c3ccccc3)c3ccccc23)OC(c2ccccc2)=NN1C(C)=O (stereo not drawn)",
    "melting point": "224 to 226 °C"
  },
  {
    "molecule": "CC(=O)N1N=C(c2ccccc2)OC1(C)c1cn(S(=O)(=O)c2ccc(Cl)cc2)c2ccc([N+](=O)[O-])cc12 (stereo not drawn)",
    "melting point": "108 to 110 °C"
  },
  {
    "molecule": "CC(=O)N1N=C(c2ccccc2)OC1(C)c1cn(S(=O)(=O)c2ccccc2)c2ccc(C#N)cc12 (stereo not drawn)",
    "melting point": "208 to 210 °C"
  },
  {
    "molecule": "CC(=O)N1N=C(c2ccccc2)OC1(C)c1cn(S(=O)(=O)c2ccc(C)cc2)c2ccc([N+](=O)[O-])cc12 (stereo not drawn)",
    "melting point": "110 to 112 °C"
  },
  {
    "molecule": "CC(=O)N1N=C(c2ccccc2)OC1(C)c1cn(S(=O)(=O)c2ccccc2)c2cc(C)ccc12 (stereo not drawn)",
    "melting point": "142 to 144 °C"
  },
  {
    "molecule": "CC(=O)N1N=C(c2ccccc2)OC1(C)c1cn(S(=O)(=O)c2ccc(Cl)cc2)c2ccc(C#N)cc12 (stereo not drawn)",
    "melting point": "128 to 130 °C"
  }
]
